Hey, just so you know, these numbers are from PubChem BioAssay (NCI).

- Test system: SK-MEL-28 melanoma
- assay: NCI-60 one-dose screen, 48 h (100 = growth as untreated, 0 = no growth, -100 = all killed)
- conditionInfo: 10 µM unless noted
- Method: Growth inhibition of the SK-MEL-28 human tumor cell line is measured as a screen for anti-cancer activity. Cells are grown in 96 well plates and exposed to the test compound for 48 hours. Compounds are tested at a single concentration, which is 10^-5 M for most compounds. The reported endpoint is percent growth (GI% or GIPRCNT), where numbers from 0 - 100% represent growth inhibition, and numbers from -100% - 0 represent cell death. For example, a value of 40 represents 60% growth inhibition. […]
The panel holds about 83,000 compounds, 20% with a hit somewhere; the sample as a whole holds those more often. Where a SMILES comes first, the peptide text is derived from it. [ ]: non-standard residue; d: D form. ξ: configuration not given here. ξD = NC(CC(=O)O)C(=O)O
propertyName: growth (%)
Reply numerically in %, unit not repeated.

Completed entries (count: 2):
>>> testvalue("O=C(/C(Cl)=N/O)c1ccc(-c2ccccc2)cc1")
110
>>> testvalue("CCN1CCCC(Nc2cc(C)nc(/N=C(/N)Nc3ccc(Cl)c(Cl)c3)n2)C1 (centres undefined)")
-87.8

stdin: Quote growth with test system SK-MEL-28 melanoma for Cc1cc(Br)c2nsnc2c1[N+](=O)[O-]
stdout: 63.3

stdin: Quote growth with test system SK-MEL-28 melanoma for Oc1ccc(Br)cc1Sc1cc(Br)ccc1O
stdout: 38.9

stdin: Quote growth with test system SK-MEL-28 melanoma for NCC(=O)NC(CC(=O)O)C(=O)O (centres undefined) (H-Gly-[ξD]-OH)
stdout: 104

stdin: Quote growth with test system SK-MEL-28 melanoma for c1ccc2sc(SSN3CC4CCC(CC4)C3)nc2c1
stdout: 132

stdin: Quote growth with test system SK-MEL-28 melanoma for O=C1C=CC(=O)N1c1ccccc1
stdout: 117
